assay: Single dose plasma pharmacokinetics in CD1 mice; type: in vivo, mouse; details: male, CD1, mouse, plasma, ip, 40 mg/kg, IP 40 mg/Kg, 120 min
outcome.measure: concentration at 120 min (ng/mL)
One number for each entry, in ng/mL.

Task: Entry Cl.Cl.N#Cc1ccc(/C=C2/C(=O)/C(=C/c3ccc(C#N)cc3)C23CCN(C(=N)N)CC3)cc1 needs its concentration at 120 min filled in; supply it.
Output: 969

###

tested on: Hep3B; assay: MTT cytotoxicity assay, Hep3B; format: cell-based; conditions: Homo sapiens, 72 h
Give pIC50 for every item shown.
One number for each entry, as −log10 of the molar value.

>  <compound>
N#Cc1ccc(/C=C2/C(=O)/C(=C/c3ccc(C#N)cc3)C23CCNCC3)cc1 [Up284, reference compound]

>  <system.name>
Hep3B

>  <outcome.measure>
pIC50

>  <assay.value>
6.80

$$$$

Then there is this compound:
Task: Please respond with reported pIC50 (system Hep3B) for Cl.Cl.N#Cc1ccc(/C=C2/C(=O)/C(=C/c3ccc(C#N)cc3)C23CCN(C(=N)N)CC3)cc1 .
Output: 6.00

###

assay: Single dose plasma pharmacokinetics in CD1 mice; assay type: in vivo, mouse; settings: male, CD1, mouse; plasma, PO 40 mg/kg
outcome.measure: AUC(0-inf)

Task: Entry Cl.Cl.N#Cc1ccc(/C=C2/C(=O)/C(=C/c3ccc(C#N)cc3)C23CCN(C(=N)N)CC3)cc1 needs its AUC(0-inf) filled in; supply it.
Output: 139 ng·h/mL

###

experiment: Single dose plasma pharmacokinetics in CD1 mice; format: in vivo, mouse; details: male, CD1, mouse, plasma, ip, 40 mg/kg, IP 40 mg/Kg, 480 min; read-out: Plasma concentration, Mean
outcome.measure: concentration at 480 min (ng/mL)
One number for each entry, in ng/mL.

Task: Entry Cl.Cl.N#Cc1ccc(/C=C2/C(=O)/C(=C/c3ccc(C#N)cc3)C23CCN(C(=N)N)CC3)cc1 [RA475] needs its concentration at 480 min filled in; supply it.
Output: 131

###

test: Single dose plasma pharmacokinetics in CD1 mice; type: in vivo, mouse; details: male, CD1, mouse, plasma, ip, 40 mg/kg, IP 40 mg/Kg, 30 min; read-out: Plasma concentration, Mean
outcome.measure: concentration at 30 min (ng/mL)
Give bare numbers, in ng/mL.

Task: Entry Cl.Cl.N#Cc1ccc(/C=C2/C(=O)/C(=C/c3ccc(C#N)cc3)C23CCN(C(=N)N)CC3)cc1 needs its concentration at 30 min filled in; supply it.
Output: 9350

###

experiment: Single dose plasma pharmacokinetics in CD1 mice; type: in vivo, mouse; conditions: male, CD1, mouse, plasma, po, 40 mg/kg, PO 40 mg/Kg, 30 min; read-out: Plasma concentration, Group A-D
outcome.measure: concentration at 30 min (ng/mL)
Numbers only, in ng/mL.

Task: Entry Cl.Cl.N#Cc1ccc(/C=C2/C(=O)/C(=C/c3ccc(C#N)cc3)C23CCN(C(=N)N)CC3)cc1 needs its concentration at 30 min filled in; supply it.
Output: 69
